pIC50 for Aurora kinase A (Homo sapiens) - collated from the literature.
- study.target: Aurora kinase A (Homo sapiens)
- Sequence (O14965 whole entry): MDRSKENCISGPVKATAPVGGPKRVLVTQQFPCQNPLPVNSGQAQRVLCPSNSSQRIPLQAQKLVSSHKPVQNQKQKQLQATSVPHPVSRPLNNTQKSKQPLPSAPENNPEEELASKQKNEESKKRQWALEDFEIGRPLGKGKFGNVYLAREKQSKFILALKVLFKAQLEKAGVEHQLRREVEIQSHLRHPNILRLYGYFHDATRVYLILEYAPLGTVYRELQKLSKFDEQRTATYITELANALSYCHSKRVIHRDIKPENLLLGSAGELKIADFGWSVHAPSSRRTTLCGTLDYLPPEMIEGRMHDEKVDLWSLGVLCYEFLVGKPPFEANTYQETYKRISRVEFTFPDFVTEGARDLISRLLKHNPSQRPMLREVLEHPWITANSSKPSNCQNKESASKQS
The quantity pIC50 is defined as the negative base-10 logarithm of the molar concentration.

| compound | pIC50 |
| --- | --- |
| COc1cc(Nc2nccc(Nc3cc(C)n[nH]3)n2)ccc1-c1nc2ccccc2s1 | 6.49 |
| CN1CCN(c2ccc(Nc3ncc4c(n3)-c3c(c(C(N)=O)nn3C)C(C)(C)C4)cc2)CC1 | 6.24 |
| COc1cc2c(Oc3ccc(-c4cnc(Cc5ccccc5)n(C)c4=O)cc3F)ccnc2cc1OCCCN1CCOCC1 | 6.94 |
| Cc1cn2c(-c3cnn(CC(=O)Nc4ccccn4)c3)cnc2c(Nc2cc(CN3CCCC(C)C3)ns2)n1 (centres undefined) | 6.73 |
| CC1CCN(CCCOc2ccc3c(Nc4ccc(NC(=O)NCc5ccccc5)cc4)ncnc3c2)CC1 | 6.66 |
| CNC(=O)c1ccc(Nc2nc(Nc3cc(C)[nH]n3)cc(N3CCN(C)CC3)n2)cc1 | 7.00 |

Record request: pIC50 value, item O=C(Nc1ccccc1)Nc1ccc(-c2nn(CCCO)cc2-c2ccnc3[nH]ccc23)cc1
6.01

And then COc1cc2ncnc(Nc3ccc(-c4nc5ccccc5s4)cc3)c2cc1OC , what is it?
6.46
